Overview of recorded Stability in Liver Microsomes (% remaining after 1 hour incubation) Mouse for various compounds
- procedure_text: Stability in Liver Microsomes (mouse)
- Assay type: in vitro ADME
- condition_parameters: 1 μM, 0.5 mg protein/mL, NADPH, 60 minutes, 37° C., pH 7.4
Note: unit % is implicit; provide only the numeric part.

`Cc1ccc(CN(CCC(=O)O)c2nc(C3CCC(C)(C)CC3)cs2)s1` has a reported Stability in Liver Microsomes (% remaining after 1 hour incubation) Mouse of 68

Please fill in: Stability in Liver Microsomes (% remaining after 1 hour incubation) Mouse reported for Cc1ccc(CN(CCC(=O)[O-])c2nc(C3CCC(C4CCCCC4)CC3)cs2)s1.[Na+] (centres unmarked) = 87

So for `Cc1ccc(CN(CCC(=O)O)c2nc(C3CCC(F)(F)CC3)cs2)s1` , the logged Stability in Liver Microsomes (% remaining after 1 hour incubation) Mouse turned out to be 60

The compound CCCC1CCC(c2csc(N(CCC(=O)O)Cc3ccc(C)s3)n2)CC1 (centres unmarked) showed Stability in Liver Microsomes (% remaining after 1 hour incubation) Mouse equal to 86

// Cc1ccc(CN(CCC(=O)[O-])c2nc(C3CCC(c4ccc(F)cc4)CC3)cs2)s1.[Na+] (centres unmarked) : Stability in Liver Microsomes (% remaining after 1 hour incubation) Mouse value = 74

====

- procedure_text: Stability in Liver Microsomes (rat)
- Type: in vitro ADME
- condition_parameters: 1 μM, 0.5 mg protein/mL, NADPH, 60 minutes, 37° C., pH 7.4
Measured Stability in Liver Microsomes (% remaining after 1 hour incubation) Rat of individual entries
// units = %; emit number, no label

>  <molecule>
O=C([O-])CCN(Cc1cccs1)c1nc(C2CCC(c3ccccc3)CC2)cs1.[Na+] (stereo not shown) [Reference Compound E, reference compound]

>  <measurement_unit>
%

>  <assay_result>
52

$$$$
>  <molecule>
Cc1ccc(CN(CCC(=O)O)c2nc(C3CCC(F)(F)CC3)cs2)s1 [Example 23]

>  <measurement_unit>
%

>  <assay_result>
15

$$$$
>  <molecule>
Cc1cc(CN(CCC(=O)O)c2nc(C3CCC(C(C)C)CC3)cs2)c(C)s1 (stereo not shown) [Example 26]

>  <measurement_unit>
%

>  <assay_result>
66

$$$$

Okay, now this molecule:
Please fill in: Stability in Liver Microsomes (% remaining after 1 hour incubation) Rat reported for Cc1cc(CN(CCC(=O)[O-])c2nc(C3CCC(c4ccccc4)CC3)cs2)c(C)s1.[Na+] (stereo not shown) [Example 40] = 67

====

Known EC50 of a selection of compounds
- target_desc: human MC-4R (Homo sapiens, UniProt P32245)
- Construct: expressed in transfected cells
- Sequence (P32245 whole entry): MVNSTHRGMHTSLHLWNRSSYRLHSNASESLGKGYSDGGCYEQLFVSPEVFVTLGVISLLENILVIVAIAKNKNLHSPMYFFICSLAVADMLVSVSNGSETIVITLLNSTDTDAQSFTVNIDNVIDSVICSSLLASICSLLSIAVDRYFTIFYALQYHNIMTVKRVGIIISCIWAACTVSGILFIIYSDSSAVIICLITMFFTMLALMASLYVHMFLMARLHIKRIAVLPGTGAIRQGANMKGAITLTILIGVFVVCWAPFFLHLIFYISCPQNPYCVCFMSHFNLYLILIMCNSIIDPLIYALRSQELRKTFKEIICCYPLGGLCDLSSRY
- procedure_text: Biological Assay: inhibition of AgRP functional interaction with MC-4R in presence of αMSH (cAMP production)
- Assay type: cell-based
- condition_parameters: HEK293 cells expressing human MC-4R, AgRP83-132 and αMSH present; read-out: Average EC50 (nM) in Biological Assay
# unit: nM | format: bare number

Guide cases for EC50, answers given:
>  <compound>
Cc1ccc(CN(CCC(=O)O)c2nc(C3CC4CCCCC4C3)cs2)s1 (centres unmarked) [Example 57]

>  <measurement_unit>
nM

>  <assay_result>
187

$$$$
>  <compound>
CCc1ccc(CN(CCC(=O)O)c2nc(C3CC4CCCCC4C3)cs2)s1 (centres unmarked) [Example 58]

>  <measurement_unit>
nM

>  <assay_result>
94

$$$$
>  <compound>
Cc1ccc(CN(CCC(=O)O)c2nc(C3CCC4(CCCCC4)CC3)cs2)s1 [Example 63]

>  <measurement_unit>
nM

>  <assay_result>
283

$$$$

The compound listed as Cc1ccc(CN(CCC(=O)[O-])c2nc([C@H]3CC[C@H](C(C)C)CC3)cs2)s1.[Na+] [Example 9] has a reported EC50 of 274

response.value for Cc1ccc(CN(CCC(=O)O)c2nc(C3(C)CCC(C(C)(C)C)CC3)cs2)s1 (centres unmarked) [Example 50] (field: EC50) = 154

response.value for Cc1ccc(CN(CCC(=O)O)c2nc(C3CCC(C)(C)CC3)cs2)s1 [Example 55] (field: EC50) = 70

EC50 reported for this compound Cc1ccc(C2(c3csc(N(CCC(=O)O)Cc4ccc(C)s4)n3)CCCC2)cc1 [Example 35] : 132

Entry CCc1ccc(CN(CCC(=O)O)c2nc(C3Cc4ccccc4C3)cs2)s1 [Example 11] ; EC50 = 252

====

- procedure_text: Stability in Liver Microsomes (dog)
- Assay type: in vitro ADME
- condition_parameters: 1 μM, 0.5 mg protein/mL, NADPH, 60 minutes, 37° C., pH 7.4
endpoint_label: Stability in Liver Microsomes (% remaining after 1 hour incubation) Dog (%)
// return numeric value only (unit: %, not printed)

Just so you know, measured Stability in Liver Microsomes (% remaining after 1 hour incubation) Dog for CC(C)(C)[C@H]1CC[C@H](c2csc(N(CCC(=O)O)Cc3cccs3)n2)CC1 [Reference Compound D, reference compound] came out at 47

Looking up Cc1ccc(CN(CCC(=O)[O-])c2nc([C@H]3CC[C@H](C(C)(C)C)CC3)cs2)s1.[Na+] [Example 7] , I see its Stability in Liver Microsomes (% remaining after 1 hour incubation) Dog listed as 66

Record summary for CCC1CCC(c2csc(N(CCC(=O)O)Cc3ccc(C)s3)n2)CC1 (stereo not shown) [Example 19] : reported Stability in Liver Microsomes (% remaining after 1 hour incubation) Dog = 87

The compound listed as COC1CCC(c2csc(N(CCC(=O)O)Cc3ccc(C)s3)n2)CC1 (stereo not shown) [Example 31] has a reported Stability in Liver Microsomes (% remaining after 1 hour incubation) Dog of 94

Entry Cc1cc(CN(CCC(=O)[O-])c2nc(C3CCC(c4ccccc4)CC3)cs2)c(C)s1.[Na+] (stereo not shown) [Example 40] , Stability in Liver Microsomes (% remaining after 1 hour incubation) Dog reported as 36

Query CCc1ccc(CN(CCC(=O)[O-])c2nc([C@H]3CC[C@H](C(C)(C)C)CC3)cs2)s1.[Na+] [Example 8] yields Stability in Liver Microsomes (% remaining after 1 hour incubation) Dog of 91

According to the records, this compound Cc1ccc(CN(CCC(=O)[O-])c2nc(C3CCC(C4CCCCC4)CC3)cs2)s1.[Na+] (stereo not shown) [Example 60] displays Stability in Liver Microsomes (% remaining after 1 hour incubation) Dog of 99

Recorded result, Cc1ccc(CN(CCC(=O)O)c2nc(C3CCC(F)(F)CC3)cs2)s1 [Example 23] , Stability in Liver Microsomes (% remaining after 1 hour incubation) Dog: 94

So, Cc1ccc(CN(CCC(=O)[O-])c2nc(C3CCC(c4ccc(F)cc4)CC3)cs2)s1.[Na+] (stereo not shown) [Example 61] ? Its Stability in Liver Microsomes (% remaining after 1 hour incubation) Dog was 84

Measured Stability in Liver Microsomes (% remaining after 1 hour incubation) Dog, Cc1cc(CN(CCC(=O)O)c2nc(C3CCC(C(C)C)CC3)cs2)c(C)s1 (stereo not shown) [Example 26] : 72

====

Listed here are compounds together with their documented EC50.
- target_desc: human MC-4R (Homo sapiens, UniProt P32245)
- Construct: expressed in transfected cells
- procedure_text: Biological Assay: inhibition of AgRP functional interaction with MC-4R in presence of αMSH (cAMP production)
- Format: cell-based
- condition_parameters: HEK293 cells expressing human MC-4R, AgRP83-132 and αMSH present; read-out: Average EC50 (nM) in Biological Assay
Give a bare numeral; the unit nM is implied.

>  <compound>
CCc1ccc(CN(CCC(=O)[O-])c2nc(C3(C)CCC(C)CC3)cs2)s1.[Na+] (stereo not drawn) [Example 47]

>  <EC50 (nM)>
58

$$$$
>  <compound>
Cc1ccc(CN(CCC(=O)[O-])c2nc(C3CCC(c4ccc(F)cc4)CC3)cs2)s1.[Na+] (stereo not drawn) [Example 61]

>  <EC50 (nM)>
246

$$$$
>  <compound>
Cc1ccc(CN(CCC(=O)O)c2nc(C3(CC(C)C)CCCC3)cs2)s1 [Example 42]

>  <EC50 (nM)>
116

$$$$

Looking up Cc1ccc(CN(CCC(=O)O)c2nc(C3CCC(C)(C)CC3)c(C)s2)s1 [Example 56] , I see its EC50 listed as 217

Lab note: Cc1ccc(CN(CCC(=O)O)c2nc(C3Cc4ccccc4C3)cs2)s1 [Example 12] gave EC50 of 384

Value of measured EC50 for the entry Cc1ccc(CN(CCC(=O)O)c2nc(C3CCC(C(C)(C)C)CC3)cs2)s1 (stereo not drawn) [Example 27] : 114

CCc1ccc(CN(CCC(=O)O)c2nc(C3CCc4ccccc4C3)cs2)s1 (stereo not drawn) [Example 13] yielded EC50 of 528

Data point: Cc1cc(CN(CCC(=O)O)c2nc(C3CC4CCCCC4C3)cs2)c(C)s1 (stereo not drawn) [Example 59] ; EC50 = 160

Kindly note the recorded EC50 for Cc1cc(CN(CCC(=O)O)c2nc(C3(CC(C)C)CCCC3)cs2)c(C)s1 [Example 44] , which is 191

All figures here come from patent US8563742B2.
